# pIC50 against Prostaglandin G/H synthase 2 (Homo sapiens, UniProt P35354), merged from multiple literature sources
# assay system: Prostaglandin G/H synthase 2 (Homo sapiens, UniProt P35354)
# Sequence (P35354 whole entry): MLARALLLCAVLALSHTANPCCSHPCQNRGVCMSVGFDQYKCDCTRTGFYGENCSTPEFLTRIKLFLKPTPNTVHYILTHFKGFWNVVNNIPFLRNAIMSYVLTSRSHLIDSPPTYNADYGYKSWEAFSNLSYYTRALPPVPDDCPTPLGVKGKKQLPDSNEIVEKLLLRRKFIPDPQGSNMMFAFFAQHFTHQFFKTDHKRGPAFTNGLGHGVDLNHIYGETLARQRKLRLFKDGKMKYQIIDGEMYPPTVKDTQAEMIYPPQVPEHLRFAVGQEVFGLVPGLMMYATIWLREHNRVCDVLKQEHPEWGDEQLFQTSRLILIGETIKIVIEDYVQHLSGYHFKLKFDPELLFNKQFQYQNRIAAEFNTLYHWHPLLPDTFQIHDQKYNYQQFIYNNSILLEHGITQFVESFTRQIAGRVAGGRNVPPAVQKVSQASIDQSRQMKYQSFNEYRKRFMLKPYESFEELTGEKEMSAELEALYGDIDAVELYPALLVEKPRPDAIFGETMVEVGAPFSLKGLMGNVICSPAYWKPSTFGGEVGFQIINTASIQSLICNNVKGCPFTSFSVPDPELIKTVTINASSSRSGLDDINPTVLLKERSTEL
pIC50: −log10 of the molar value.

>>> meas_value("COc1ccc(-c2noc(CC(=O)NCCCCC(=O)OC[C@H]3OC(O)[C@H](O)[C@@H](O)[C@H]3O)c2-c2ccc(OC)cc2)cc1 (stereo not given in full)")
"< 4.30"
>>> meas_value("Nc1ccc(NC(=O)c2cccc(C(F)(F)F)c2)nc1")
"< 4.00"
>>> meas_value("CS(=O)(=O)c1ccc(-c2[nH]nc(C(F)(F)F)c2-c2ccc(F)cc2)cc1")
"< 4.00"
>>> meas_value("CN(C)c1ccc(-c2cn(-c3ccc(S(C)(=O)=O)cc3)nn2)cc1")
"< 5.00"

Record Nc1cccc(C(=O)Nc2cccc(C(F)(F)F)c2)c1 . Reported pIC50: < 4.00
